meta.source: patent US11352394B2

Each entry below carries its recorded Cellular Uptake (MFINF, %).
# Tested on: HeLa cells
# method_description: Cellular (cytosolic) uptake of NF-labeled peptides by flow cytometry (MFI)
# Assay type: cell-based
# conditions_used: HeLa cells, 5 μM NF-labeled peptide, 2 h, flow cytometry; relative to CPP1 (100%)
Square brackets hold non-standard residues; d marks the D form. 2Nal = N[C@@H](Cc1ccc2ccccc2c1)C(=O)O; d2Nal = N[C@H](Cc1ccc2ccccc2c1)C(=O)O

substance: cyclo(A-A-F-Φ-R-p-P-R-R-F-A-A-A-Q)-miniPEG-K(NF) (cyclo(AAF[2Nal]R[dP]PRRFAAAQ); not fully specified (residue 14); printed as cyclo(A-A-F-Φ-R-p-P-R-R-F-A-A-A-Q)-miniPEG-K(NF)) [BH4]
Cellular Uptake (MFINF, %): 73
--
substance: cyclo(R-A-F-Φ-r-p-P-R-R-F-R-A-R-Q)-miniPEG-K(NF) (cyclo(RAF[2Nal][dR][dP]PRRFRARQ); not fully specified (residue 14); printed as cyclo(R-A-F-Φ-r-p-P-R-R-F-R-A-R-Q)-miniPEG-K(NF)) [BH9]
Cellular Uptake (MFINF, %): 104
--
substance: cyclo(A-A-F-Φ-r-p-P-R-R-F-A-A-A-Q)-miniPEG-K(NF) (cyclo(AAF[2Nal][dR][dP]PRRFAAAQ); not fully specified (residue 14); printed as cyclo(A-A-F-Φ-r-p-P-R-R-F-A-A-A-Q)-miniPEG-K(NF)) [BH6]
Cellular Uptake (MFINF, %): 431
--
substance: cyclo(A-E-T-G-E-F-L-F-Φ-r-p-P-R-R-F-L-Q)-miniPEG-K(NF) (cyclo(AETGEFLF[2Nal][dR][dP]PRRFLQ); not fully specified (residue 17); printed as cyclo(A-E-T-G-E-F-L-F-Φ-r-p-P-R-R-F-L-Q)-miniPEG-K(NF)) [BH12]
Cellular Uptake (MFINF, %): 575
--
substance: cyclo(A-A-F-Φ-F-p-P-R-R-R-A-A-A-Q)-miniPEG-K(NF) (cyclo(AAF[2Nal]F[dP]PRRRAAAQ); not fully specified (residue 14); printed as cyclo(A-A-F-Φ-F-p-P-R-R-R-A-A-A-Q)-miniPEG-K(NF)) [BH3]
Cellular Uptake (MFINF, %): 30
--
substance: cyclo(A-A-F-φ-R-p-P-R-R-F-A-A-A-Q)-miniPEG-K(NF) (cyclo(AAF[d2Nal]R[dP]PRRFAAAQ); not fully specified (residue 14); printed as cyclo(A-A-F-φ-R-p-P-R-R-F-A-A-A-Q)-miniPEG-K(NF)) [BH8]
Cellular Uptake (MFINF, %): 235
--
substance: cyclo(S-A-S-F-Φ-r-p-P-R-R-F-S-A-S-A-Q)-miniPEG-K(NF) (cyclo(SASF[2Nal][dR][dP]PRRFSASAQ); not fully specified (residue 16); printed as cyclo(S-A-S-F-Φ-r-p-P-R-R-F-S-A-S-A-Q)-miniPEG-K(NF)) [BH11]
Cellular Uptake (MFINF, %): 245
--
substance: cyclo(D-A-F-Φ-r-p-P-R-R-F-D-A-D-Q)-miniPEG-K(NF) (cyclo(DAF[2Nal][dR][dP]PRRFDADQ); not fully specified (residue 14); printed as cyclo(D-A-F-Φ-r-p-P-R-R-F-D-A-D-Q)-miniPEG-K(NF)) [BH10]
Cellular Uptake (MFINF, %): 44
--
substance: cyclo(A-A-F-Φ-R-p-P-r-R-F-A-A-A-Q)-miniPEG-K(NF) (cyclo(AAF[2Nal]R[dP]P[dR]RFAAAQ); not fully specified (residue 14); printed as cyclo(A-A-F-Φ-R-p-P-r-R-F-A-A-A-Q)-miniPEG-K(NF)) [BH5]
Cellular Uptake (MFINF, %): 102
--
substance: cyclo(A-A-F-Φ-R-p-P-R-R-R-A-A-A-Q)-miniPEG-K(NF) (cyclo(AAF[2Nal]R[dP]PRRRAAAQ); not fully specified (residue 14); printed as cyclo(A-A-F-Φ-R-p-P-R-R-R-A-A-A-Q)-miniPEG-K(NF)) [BH1]
Cellular Uptake (MFINF, %): 66
